This collection of values is drawn from patent US12404289B2.

tested on: Respiratory syncytial virus (RSV) strain A2; test: RSV antiviral assay (HEp-2, 96 well); type: cell-based; conditions: human respiratory syncytial virus, HEp-2, 96 h, read-out: EC50 RSV HEP2 96, HEp-2 cells, RSV A2, MOI=4, 4 days, 96 well; Table 3
pEC50: −log10 of the molar value.
Recorded pEC50 values for a group of molecules are listed next.

[
  {
    "Molecule": "CCCCCCOC(=O)[C@H](Cc1ccccc1)NP(=O)(OC[C@H]1O[C@@](C#N)(c2ccc3c(N)ncnn23)[C@H](OC(=O)C(C)C)[C@@H]1OC(=O)C(C)C)Oc1ccc(C(C)(C)C)cc1 (stereo partly shown)",
    "Target desc": "Respiratory syncytial virus (RSV) strain A2",
    "pEC50": 7.20
  },
  {
    "Molecule": "CCC(CC)COC(=O)[C@H](C)NP(=O)(OC[C@H]1O[C@@](C#N)(c2ccc3c(N)ncnn23)[C@H](O)[C@@H]1O)Oc1cccc(C(C)(C)C)c1 (stereo partly shown) [Example 68a]",
    "Target desc": "Respiratory syncytial virus (RSV) strain A2",
    "pEC50": 7.22
  },
  {
    "Molecule": "CCOC(=O)[C@H](C)NP(=O)(OC[C@H]1O[C@@](C#N)(c2ccc3c(N)ncnn23)[C@H](OC(=O)C(C)C)[C@@H]1OC(=O)C(C)C)Oc1ccc(C(C)C)cc1 (stereo partly shown)",
    "Target desc": "Respiratory syncytial virus (RSV) strain A2",
    "pEC50": 7.24
  },
  {
    "Molecule": "CCC(CC)COC(=O)[C@H](C)NP(=O)(OC[C@H]1O[C@@](C#N)(c2ccc3c(N)ncnn23)[C@H](OC(=O)C(C)C)[C@@H]1OC(=O)C(C)C)Oc1ccc(C[C@H](NC(=O)OCc2ccccc2)C(=O)OCCC(C)C)cc1 (stereo partly shown)",
    "Target desc": "Respiratory syncytial virus (RSV) strain A2",
    "pEC50": 6.26
  },
  {
    "Molecule": "C[C@H](NP(=O)(OC[C@H]1O[C@@](C#N)(c2ccc3c(N)ncnn23)[C@H](O)[C@@H]1O)Oc1ccc(C(C)(C)C)cc1)C(=O)OCC1CCC1 (stereo partly shown)",
    "Target desc": "Respiratory syncytial virus (RSV) strain A2",
    "pEC50": 7.60
  },
  {
    "Molecule": "C[C@H](NP(=O)(OC[C@H]1O[C@@](C#N)(c2ccc3c(N)ncnn23)[C@H](O)[C@@H]1O)Oc1ccc(C(C)(C)C)cc1)C(=O)OCCC(C)(C)C (stereo partly shown)",
    "Target desc": "Respiratory syncytial virus (RSV) strain A2",
    "pEC50": 7.43
  },
  {
    "Molecule": "CC(C)COC(=O)[C@H](C)NP(=O)(OC[C@H]1O[C@@](C#N)(c2ccc3c(N)ncnn23)[C@H](O)[C@@H]1O)Oc1ccc(C(C)(C)C)cc1 (stereo partly shown)",
    "Target desc": "Respiratory syncytial virus (RSV) strain A2",
    "pEC50": 7.63
  },
  {
    "Molecule": "CCOC(=O)[C@H](C)NP(=O)(OC[C@H]1O[C@@](C#N)(c2ccc3c(N)ncnn23)[C@H](OC(=O)C(C)C)[C@@H]1OC(=O)C(C)C)Oc1cccc2ccccc12 (stereo partly shown)",
    "Target desc": "Respiratory syncytial virus (RSV) strain A2",
    "pEC50": 7.75
  },
  {
    "Molecule": "C[C@H](NP(=O)(OC[C@H]1O[C@@](C#N)(c2ccc3c(N)ncnn23)[C@H](O)[C@@H]1O)Oc1ccc(C(C)(C)C)cc1)C(=O)O[C@H]1CC[C@H](C(F)(F)F)CC1 (single isomer, unassigned) [Example 84a]",
    "Target desc": "Respiratory syncytial virus (RSV) strain A2",
    "pEC50": 6.73
  },
  {
    "Molecule": "CCC(CC)COC(=O)[C@H](C)NP(=O)(OC[C@H]1O[C@@](C#N)(c2ccc3c(N)ncnn23)[C@H](O)[C@@H]1O)Oc1cccc2ccccc12 (stereo partly shown) [Intermediate S2]",
    "Target desc": "Respiratory syncytial virus (RSV) strain A2",
    "pEC50": 7.07
  }
]
